Below, each of the molecules is paired with its reported pIC50 value.
- Test system: LS-123
- ASSAY NOTES: cells
- Format: functional, cell-based
- CONDITION DETAILS: Homo sapiens
- Description: SANGER: Inhibition of human LS-123 cell growth in a cell viability assay.
pIC50: −log10 of the molar value.
ASSAY READOUT: pIC50

>  <MOLECULE>
COc1cc(C)c(Sc2cnc(NC(=O)c3ccc(CNC(C)C(C)(C)C)cc3)s2)cc1C(=O)N1CCN(C(C)=O)CC1 (stereo not given)

>  <RELATION SIGN>
<

>  <RECORDED RESULT>
4.99

$$$$
>  <MOLECULE>
Cn1c(=O)n(-c2ccc(C(C)(C)C#N)cc2)c2c3cc(-c4cnc5ccccc5c4)ccc3ncc21

>  <RELATION SIGN>
=

>  <RECORDED RESULT>
7.04

$$$$
>  <MOLECULE>
C[C@]1(c2nc3c(C(N)=O)cccc3[nH]2)CCCN1

>  <RELATION SIGN>
<

>  <RECORDED RESULT>
5.30

$$$$
>  <MOLECULE>
Cc1n[nH]c2ccc(-c3cncc(OC[C@@H](N)Cc4c[nH]c5ccccc45)c3)cc12

>  <RELATION SIGN>
=

>  <RECORDED RESULT>
6.47

$$$$
>  <MOLECULE>
CO[C@@]12[C@H](COC(N)=O)C3=C(C(=O)C(C)=C(N)C3=O)N1C[C@@H]1N[C@@H]12

>  <RELATION SIGN>
=

>  <RECORDED RESULT>
5.76

$$$$
